FYI, the data here is from PubChem BioAssay AID488969.

molecular target: Metabotropic glutamate receptor 8 (Rattus norvegicus); assay: mGluR8 Gi/Go-coupled signaling modulation – cell-based, rat, thallium flux, HTS, primary screen (AID 488969); conditions: HEK293 rat mGluR8, GIRK thallium flux, FluoZin2; at 10 µM; stronger effect = higher value; submaximal glutamate (EC20) added with thallium
The full ranking holds about 110,000 compounds; the median of “z-score” is about -0.1, and the highest 2% start at about 2. Only a selection was taken, and the highest values are over-represented in it overall.
z-score values by entry
Assay Endpoint: z-score

>  <Compound>
O=c1[nH]c2cc3c(cc2cc1C(c1nnnn1C1CCCCC1)N1CCSCC1)OCCO3 (stereo not given)

>  <Observed Measurement>
0.278

$$$$
>  <Compound>
CNC(=S)N1CCN(c2ccc(OC)cc2)CC1

>  <Observed Measurement>
8.68

$$$$
>  <Compound>
CC(C)NC(=O)C12CC3CC(C1)CC(n1cnc(Cl)n1)(C3)C2

>  <Observed Measurement>
-0.0733

$$$$
>  <Compound>
Nc1nc(SCC(=O)NC2CCCC2)[nH]c(=O)c1-c1ccccc1

>  <Observed Measurement>
-0.603

$$$$
>  <Compound>
COc1ccc(C2C(C(N)=O)=C(C)Nc3nc(-c4ccccc4OC)nn32)cc1OC (stereo not given)

>  <Observed Measurement>
0.317

$$$$
>  <Compound>
COc1ccc(C(=S)N2CCCCCC2)cc1

>  <Observed Measurement>
-0.075

$$$$
>  <Compound>
COc1ccc(C(=O)NC(=O)N2CCCCC2)cc1

>  <Observed Measurement>
0.975

$$$$
>  <Compound>
CCn1nnc(NC(=O)c2cccnc2Cl)n1

>  <Observed Measurement>
-0.48

$$$$
>  <Compound>
CCOC(=O)c1c(-c2ccccc2)csc1NC(=O)c1nn(CC)cc1Br

>  <Observed Measurement>
-0.101

$$$$
>  <Compound>
CCCC(=O)NC1C2CC3CC(C2)CC1C3 (stereo not given)

>  <Observed Measurement>
0.313

$$$$
>  <Compound>
S=C(N/N=C1\C2CN3CCN(C2)CC1(c1ccccc1)C3)Nc1ccccc1

>  <Observed Measurement>
0.425

$$$$
>  <Compound>
O=C(NC1(C(F)(F)F)NC(=O)N(Cc2cccnc2)C1=O)c1ccc(F)cc1 (stereo not given)

>  <Observed Measurement>
0.269

$$$$
>  <Compound>
COc1ccc(OC(C)C(=O)N2CCC(C)CC2)cc1 (stereo not given)

>  <Observed Measurement>
0.926

$$$$
>  <Compound>
O=C1CCCc2c1cc(C(=O)NC1CCSC1=O)c(=O)n2-c1ccccc1 (stereo not given)

>  <Observed Measurement>
-0.276

$$$$
>  <Compound>
CC(=O)Nc1nc2ccc(-c3nc4ccccc4o3)cc2s1

>  <Observed Measurement>
2.69

$$$$
>  <Compound>
CCCNc1c(N)c(=O)oc2ccccc12

>  <Observed Measurement>
-1.25

$$$$
>  <Compound>
COc1ccc(C(=O)NC(=S)N2CCCCC2)cc1

>  <Observed Measurement>
3.44

$$$$
>  <Compound>
CN1C(=O)/C(=C/c2ccc3c(c2)OCO3)N=C1c1ccccc1

>  <Observed Measurement>
0.393

$$$$
>  <Compound>
COc1cccc(CNCCSc2nnnn2C)c1OC

>  <Observed Measurement>
0.709

$$$$
>  <Compound>
CCCNc1nc(N2CCOCC2)nc(N2CCOCC2)n1

>  <Observed Measurement>
-0.0765

$$$$
>  <Compound>
CCC(=O)Nc1ccc(Cl)c(NC(=O)C(C)C)c1

>  <Observed Measurement>
0.418

$$$$
>  <Compound>
CC1CCN(C(=S)NCCc2ccccc2)CC1

>  <Observed Measurement>
-0.0312

$$$$
>  <Compound>
Cn1c(=O)[nH]c(=O)c2c1nc(NC1CCCCC1)n2Cc1ccccc1

>  <Observed Measurement>
0.331

$$$$
>  <Compound>
CC(=O)Nc1nc2ccc(C(=O)NC3CCCCC3)cc2s1

>  <Observed Measurement>
-0.32

$$$$
>  <Compound>
S=C(NN=C(C1CC1)C1CC1)Nc1ccccc1

>  <Observed Measurement>
4.43

$$$$

----------
Recorded z-score values for a group of molecules are listed next.
target: Metabotropic glutamate receptor 8 (Rattus norvegicus); experiment: mGluR8 Gi/Go-coupled signaling modulation – cell-based, rat, thallium flux, HTS, primary screen (AID 488969); conditions: HEK293 rat mGluR8, GIRK thallium flux, FluoZin2; at 10 µM; stronger effect = higher value; submaximal glutamate (EC20) added with thallium
In all, about 110,000 compounds were measured (“z-score”: median about -0.1, highest 2% from about 2 on). What follows is part of a selection rich in the highest values, with near analogues and random picks from the rest.
Assay Endpoint: z-score

>  <Molecule>
CC(=O)c1cccc(NC(=O)c2ccc(N(Cc3ccccc3)S(C)(=O)=O)cc2)c1

>  <Observed Measurement>
-0.207

$$$$
>  <Molecule>
O=[N+]([O-])c1cccc(C(=Nc2ccc(Cl)cc2)NO)c1

>  <Observed Measurement>
-0.259

$$$$
>  <Molecule>
CCC(=O)N(Cc1cc2ccc(C)cc2n2nnnc12)C1CCCCC1

>  <Observed Measurement>
-0.401

$$$$
>  <Molecule>
O=C1c2ccccc2C(Nc2ccc(S(=O)(=O)N3CCOCC3)cc2)N1c1ccccn1 (configuration not stated)

>  <Observed Measurement>
-0.244

$$$$
>  <Molecule>
CCN1CCN(c2cc(C)c3cc(NC(=O)c4ccc(Br)o4)ccc3n2)CC1

>  <Observed Measurement>
3.44

$$$$
>  <Molecule>
O=[N+]([O-])c1ccc(-c2nnc(CSc3nc(-c4ccccc4)nc4ccc(F)cc34)o2)cc1

>  <Observed Measurement>
0.0904

$$$$
>  <Molecule>
Fc1ccc2nc(-c3ccccc3)nc(SCc3nnc(-c4ccccc4)o3)c2c1

>  <Observed Measurement>
14.3

$$$$
>  <Molecule>
O=C(O)C1C2C=CC(C3CC23)C1C(=O)NCCc1ccccc1 (configuration not stated)

>  <Observed Measurement>
0.335

$$$$
>  <Molecule>
COc1ccc2c(c1)c1nc3ccccc3nc1n2CC(=O)OC(C)C

>  <Observed Measurement>
0.485

$$$$
>  <Molecule>
Cc1cc(N2CCCCC2)nc2ccc(NC(=O)c3ccc(Br)o3)cc12

>  <Observed Measurement>
-1.58

$$$$
>  <Molecule>
C=CCc1c(C)nc(SC)nc1Nc1ccccc1

>  <Observed Measurement>
-0.563

$$$$
>  <Molecule>
CCc1nc(Nc2ccc(OC)c(OC)c2)c2nnn(Cc3ccccc3Cl)c2n1

>  <Observed Measurement>
0.049

$$$$
>  <Molecule>
CC(C)OC(=O)c1c(N)n(CCCN2CCOCC2)c2nc3ccccc3nc12

>  <Observed Measurement>
-0.444

$$$$
>  <Molecule>
Cc1ccc(OCCCSc2ncccn2)cc1C

>  <Observed Measurement>
-0.106

$$$$
>  <Molecule>
O=c1c2ccccc2nc(SCc2nnc(-c3ccccc3)o2)n1-c1ccc(F)cc1F

>  <Observed Measurement>
-0.56

$$$$
>  <Molecule>
Cc1c(N2C(=O)CS/C2=N\N=C\c2ccc(Br)cc2)c(=O)n(-c2ccccc2)n1C

>  <Observed Measurement>
-0.286

$$$$
>  <Molecule>
CC1(C)CC(c2nc(-c3ccc(Cl)cc3)cs2)CCS1 (configuration not stated)

>  <Observed Measurement>
0.117

$$$$
>  <Molecule>
Cc1ccc(C)c(NS(=O)(=O)c2cc(C(=O)NCc3ccco3)ccc2C)c1

>  <Observed Measurement>
-0.408

$$$$
>  <Molecule>
CCn1c(COc2ccccc2C)nc2ccccc21

>  <Observed Measurement>
-1.56

$$$$
>  <Molecule>
CCN1CCN(c2cc(C)c3cc(NC(=O)c4ccncc4)ccc3n2)CC1

>  <Observed Measurement>
1.22

$$$$
>  <Molecule>
Cc1cc(Nc2ccccc2)n(C(=O)c2ccc(Cl)cc2)n1

>  <Observed Measurement>
0.82

$$$$
>  <Molecule>
CCOC(=O)C1CCN(C(=O)c2cccc(Cl)c2)CC1

>  <Observed Measurement>
0.0552

$$$$

----------
molecular target: Metabotropic glutamate receptor 8 (Rattus norvegicus) (UniProt P70579); assay: mGluR8 Gi/Go-coupled signaling modulation – cell-based, rat, thallium flux, HTS, primary screen (AID 488969); settings: HEK293 rat mGluR8, GIRK (G protein-gated inwardly rectifying potassium channel) thallium flux, FluoZin2; at 10 µM; stronger effect = higher value; submaximal glutamate (EC20) added with thallium
Sequence (P70579 whole entry, looked up): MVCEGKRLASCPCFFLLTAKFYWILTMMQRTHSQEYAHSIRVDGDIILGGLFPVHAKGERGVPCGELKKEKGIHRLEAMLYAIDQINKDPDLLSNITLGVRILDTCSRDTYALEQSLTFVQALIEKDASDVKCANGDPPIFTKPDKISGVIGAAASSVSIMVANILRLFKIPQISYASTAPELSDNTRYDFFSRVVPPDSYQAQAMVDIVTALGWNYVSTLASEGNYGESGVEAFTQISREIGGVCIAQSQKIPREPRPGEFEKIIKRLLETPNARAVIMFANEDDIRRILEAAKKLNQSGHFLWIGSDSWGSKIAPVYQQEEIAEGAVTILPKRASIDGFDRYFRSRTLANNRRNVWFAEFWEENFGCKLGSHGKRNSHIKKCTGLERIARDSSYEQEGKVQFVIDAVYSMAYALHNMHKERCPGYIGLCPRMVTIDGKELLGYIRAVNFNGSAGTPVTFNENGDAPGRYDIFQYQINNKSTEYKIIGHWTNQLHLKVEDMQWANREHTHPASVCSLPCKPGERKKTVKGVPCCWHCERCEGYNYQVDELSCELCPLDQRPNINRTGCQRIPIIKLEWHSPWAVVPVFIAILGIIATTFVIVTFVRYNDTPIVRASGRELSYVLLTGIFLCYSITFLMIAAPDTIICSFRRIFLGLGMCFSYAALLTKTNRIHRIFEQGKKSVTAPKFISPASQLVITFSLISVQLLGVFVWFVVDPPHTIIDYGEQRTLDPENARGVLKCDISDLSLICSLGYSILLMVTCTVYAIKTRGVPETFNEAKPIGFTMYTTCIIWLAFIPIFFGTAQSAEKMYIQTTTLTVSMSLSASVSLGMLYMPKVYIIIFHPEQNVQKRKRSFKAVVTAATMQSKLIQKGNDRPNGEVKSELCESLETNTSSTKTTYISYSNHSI
Over roughly 110,000 compounds, “z-score” has its median near -0.1; the highest 2% begin near 2. The entries come from a sample that favours the highest values as a whole.
Each entry gets Not met if its z-score stays under 0.4, and Met if its z-score is 0.4 or above.

>  <Molecule>
Cc1cc(C)c2nc(NC(=O)c3cccc(S(=O)(=O)N4CCc5ccccc54)c3)sc2c1

>  <Assigned Label>
Not met

$$$$
>  <Molecule>
CCn1c(=N)n(CCOc2ccc(OC)cc2)c2ccccc21

>  <Assigned Label>
Not met

$$$$
>  <Molecule>
CC(C)c1nnc(NC(=O)CCC(=O)NCc2ccc3c(c2)OCO3)s1

>  <Assigned Label>
Met

$$$$
>  <Molecule>
O=C(NCC1CCCO1)c1c(O)c2c([nH]c1=O)CCCC2 (stereo unspecified)

>  <Assigned Label>
Met

$$$$
>  <Molecule>
Cc1nc2oc3ccccc3c(=O)c2c(=O)n1Cc1ccccc1

>  <Assigned Label>
Met

$$$$
